Source of measurements: PubChem BioAssay (NCI)

System: HS 578T breast
Assay: NCI tumour cell line growth inhibition, 48 h; in the data active means GI50 below about 0.43 µM; inactive means the rest
Outcomes: active, inactive

In [3]: df
Out[3]:
                                   molecule  class_assignment
0  O=C(OCc1nc2nc(Cl)nc(N3CCOCC3)c2[nH]1)n1ccnc1          inactive
1   O=C1Nc2ccccc2/C1=C\c1c[nH]c2ccc(Br)cc12          inactive
2  C[C@H]1CCC/C=C/[C@@H]2C[C@H](O)C[C@H]2[C@H](O)[C@@H](S(=O)C[C@@H](N)C(=O)O)CC(=O)O1 (stereo not given in full)            active
3  COc1ccc(C2C(C#N)=C(N)Oc3c2sc2c(F)cccc32)cc1 (stereo not given)          inactive
4  O=C(NCCCN1CCC(N2CCCCC2)CC1)C1=Cc2cc(Br)ccc2OC1          inactive
